System: HOP-92
test.description: in vitro non-small cell lung cancer cell growth inhibition (NCI screen)
readout.label: cytotoxicity log GI50

Data request: Quick one: cytotoxicity log GI50 for `O=C(O)CCc1nc2c(n1-c1ccccc1)C(=O)c1ccccc1C2=O` ?
Data returned: -7.65 M

Data request: Quick one: cytotoxicity log GI50 for CCC(C)Cn1c(C)nc2c1C(=O)c1ccccc1C2=O (stereo not shown) ?
Data returned: -4.69 M

Data request: Quick one: cytotoxicity log GI50 for CCCC(C)NC1=C(NC(C)=O)C(=O)c2ccccc2C1=O (stereo not shown) ?
Data returned: -4.32 M

Data request: Quick one: cytotoxicity log GI50 for `O=C(NC1=C(Cl)C(=O)c2ccccc2C1=O)c1ccccc1` ?
Data returned: -4.60 M

Data request: Quick one: cytotoxicity log GI50 for `COc1ccc(CNC2=C(NC(C)=O)C(=O)c3ccccc3C2=O)cc1` ?
Data returned: -5.18 M

List the reported cytotoxicity log GI50 of each compound below.
1. COc1ccc(-n2c(CCCC(=O)O)nc3c2C(=O)c2ccccc2C3=O)cc1
2. Cc1nc2c(n1C(C)(C)C)C(=O)c1ccccc1C2=O
3. CCn1c(C)nc2c1C(=O)c1ccccc1C2=O
4. CCC(c1ccc(F)cc1)c1nc2c(n1CC)C(=O)c1ccccc1C2=O (stereo not shown)

Data returned:
1. -4.69 M
2. -5.03 M
3. -5.79 M
4. -4.75 M

* * *

Exercise: for every item that follows, state its recorded cytotoxicity log GI50.
System: K-562
test.description: in vitro leukemia cell growth inhibition (NCI screen)
Give bare numbers, in M.

Some compounds with recorded cytotoxicity log GI50:
Data request: Lab request: please report cytotoxicity log GI50 under test system K-562 for `O=C(NC1=C(Cl)C(=O)c2ccccc2C1=O)c1ccccc1`
Data returned: -4.66

Data request: Lab request: please report cytotoxicity log GI50 under test system K-562 for `CCC(C)(C)n1c(C)nc2c1C(=O)c1ccccc1C2=O`
Data returned: -4.87

Data request: Lab request: please report cytotoxicity log GI50 under test system K-562 for `CCCc1nc2c(n1CC)C(=O)c1ccccc1C2=O`
Data returned: -4.51

Data request: Lab request: please report cytotoxicity log GI50 under test system K-562 for CCC(C)n1c(C)nc2c1C(=O)c1ccccc1C2=O (stereo not shown)
Data returned: -4.47

Data request: Lab request: please report cytotoxicity log GI50 under test system K-562 for `CC(=O)NC1=C(NCC(C)C)C(=O)c2ccccc2C1=O`
Data returned: -4.81

Data request: Lab request: please report cytotoxicity log GI50 under test system K-562 for `O=C(NC1=C(Cl)C(=O)c2ccccc2C1=O)c1ccc(F)cc1`
Data returned: -6.04

List the reported cytotoxicity log GI50 of each compound below.
1. Cc1ccc(Cn2c(C)nc3c2C(=O)c2ccccc2C3=O)cc1
2. CCCC(=O)NC1=C(NCC)C(=O)c2ccccc2C1=O
3. CC(=O)NC1=C(NC(C)(C)C)C(=O)c2ccccc2C1=O
4. Cc1nc2c(n1C(C)(C)C)C(=O)c1ccccc1C2=O

Data returned:
-6.08
-4.29
-5.14
-4.30

* * *

Exercise: for every item that follows, state its recorded cytotoxicity log GI50.
System: NCI-H460
test.description: in vitro non-small cell lung cancer cell growth inhibition (NCI screen)
One number for each entry, in M.

Some compounds with recorded cytotoxicity log GI50:
Data request: Quick one: cytotoxicity log GI50 for `CCn1c(Cc2ccc(F)cc2)nc2c1C(=O)c1ccccc1C2=O` ?
Data returned: -4.90

Data request: Quick one: cytotoxicity log GI50 for `CCC(C)(C)n1c(C)nc2c1C(=O)c1ccccc1C2=O` ?
Data returned: -4.91

Data request: Quick one: cytotoxicity log GI50 for CCC(C)n1c(C)nc2c1C(=O)c1ccccc1C2=O (centres unmarked) ?
Data returned: -4.71

Data request: Quick one: cytotoxicity log GI50 for `COC(=O)CCC(=O)NC1=C(Nc2ccc(OC)cc2)C(=O)c2ccccc2C1=O` ?
Data returned: -5.18

Now for another entry.
Data request: Quick one: cytotoxicity log GI50 for `CC(=O)NC1=C(NCCN(C)C)C(=O)c2ccccc2C1=O` ?
Data returned: -4.89
